- ASSAY_EXPLANATION: recombinant UMI read abundance after kanamycin selection (control-corrected) (log10(CPM+1)); higher = more efficient recombination; extreme values may be limits of the assay; sequences stand for … in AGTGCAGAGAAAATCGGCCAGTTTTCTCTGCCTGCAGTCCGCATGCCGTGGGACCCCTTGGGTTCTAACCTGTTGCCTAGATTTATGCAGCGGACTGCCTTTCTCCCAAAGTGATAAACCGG…AGGTTGGTTTCACT; site = the 11-nt donor;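 further: IS621 bridge recombinase in Escherichia coli cells against a fixed T5 target plasmid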
QUANTITY_MEASURED: recombinant UMI read abundance (log10)
// no unit string in output, number only

Solved entries (count: 5):
{"columns": ["SEQUENCE_CHAIN", "QUANTITY_MEASURED", "MEAS_VALUE"],
 "data": [
  ["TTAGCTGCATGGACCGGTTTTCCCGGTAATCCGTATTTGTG (site TTAGCTGCTCA)", "recombinant UMI read abundance (log10)", 0.543],
  ["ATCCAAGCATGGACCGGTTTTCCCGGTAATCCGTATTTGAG (site ATCCAAACTCT)", "recombinant UMI read abundance (log10)", 1.09],
  ["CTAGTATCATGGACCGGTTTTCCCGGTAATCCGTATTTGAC (site CTAGAATCTGA)", "recombinant UMI read abundance (log10)", 0],
  ["AGAGGTCCATGGACCGGTTTTCCCGGTAATCCGTATTTGTG (site AGAGGTCCTCA)", "recombinant UMI read abundance (log10)", 0.00302],
  ["TACTGAGCATGGACCGGTTTTCCCGGTAATCCGTATTTGGG (site TATTGAGCTCC)", "recombinant UMI read abundance (log10)", 0]
]}

In: Please report the measured recombinant UMI read abundance (log10) for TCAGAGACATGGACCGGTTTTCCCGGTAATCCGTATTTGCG (site TAAGAGACTCG)
Out: 1.02

In: Please report the measured recombinant UMI read abundance (log10) for CTAGTCGCATGGACCGGTTTTCCCGGTAATCCGTATTTGCG (site CTAGTCGCTCG)
Out: 0.966

In: Please report the measured recombinant UMI read abundance (log10) for GTGATTCCATGGACCGGTTTTCCCGGTAATCCGTATTTGCA (site GTGATTCCTTG)
Out: 1.09

In: Please report the measured recombinant UMI read abundance (log10) for GTGTAGGCATGGACCGGTTTTCCCGGTAATCCGTATTTGTG (site GTGAAGGCTCA)
Out: 0.891

In: Please report the measured recombinant UMI read abundance (log10) for CCGTTATCATGGACCGGTTTTCCCGGTAATCCGTATTTGTG (site CCGTTAGCTCA)
Out: 0.0138

In: Please report the measured recombinant UMI read abundance (log10) for AGCATAGCATGGACCGGTTTTCCCGGTAATCCGTATTTGTT (site AGCGTAGCTAA)
Out: 0.0357

In: Please report the measured recombinant UMI read abundance (log10) for CCCGGACCATGGACCGGTTTTCCCGGTAATCCGTATTTGCA (site CCCGGCCCTTG)
Out: 0

In: Please report the measured recombinant UMI read abundance (log10) for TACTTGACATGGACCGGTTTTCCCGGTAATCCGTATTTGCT (site TACTTTACTAG)
Out: 0

In: Please report the measured recombinant UMI read abundance (log10) for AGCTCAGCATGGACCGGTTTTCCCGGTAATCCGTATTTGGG (site AGGTCAGCTCC)
Out: 0.00833

In: Please report the measured recombinant UMI read abundance (log10) for CCGCGTGCATGGACCGGTTTTCCCGGTAATCCGTATTTGCG (site CCGCGTGCTCG)
Out: 0.222

In: Please report the measured recombinant UMI read abundance (log10) for GATTATCCATGGACCGGTTTTCCCGGTAATCCGTATTTGCC (site GATTATCCTGG)
Out: 0
